Reference source for all entries: paper PMC10397247

TARGET: T1, 4H797-AA
T1 chain: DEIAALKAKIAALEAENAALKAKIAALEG
ASSAY EXPLANATION: two-hybrid library CCmax;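 note: natural log of median RNA to DNA barcode read ratio; higher means stronger binding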
CONDITION NOTES: mean of both orientations
VALUE KIND: interaction score

# annotated cases, reported interaction score shown
> print(dat)
                                     binder         value.kind  assay.result
1  DENAALKAEIAALEAKIAALKAENAALEG [4H1579-AA]  interaction score         -1.46
2  DEIAALEAKNAALKAEIAALKAEIAALKG [4H458-AA]  interaction score         -1.44

(a) DKNAALEAKIAALKAENAALEAEIAALKG [4H3410-AA]
(b) DENAALKAKIAALKAEIAALEAKNAALKG [4H1864-AA]
## Input Compare a and b by numeric interaction score and name the larger one. Label of pick, please.
## Output a
(a: -1.22, b: -2.09)
